Target: K-Ras WT (Homo sapiens, UniProt P01116)
Sequence (P01116 1-169 isoform P01116-2): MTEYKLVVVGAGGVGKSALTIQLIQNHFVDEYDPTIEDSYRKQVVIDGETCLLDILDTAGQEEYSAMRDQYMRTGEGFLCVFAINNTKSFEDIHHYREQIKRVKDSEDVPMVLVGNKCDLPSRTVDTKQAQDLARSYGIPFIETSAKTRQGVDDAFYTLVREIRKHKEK
Assay: biochemical
Property label: IC50 (µM)
Dear colleague, please return just the value in µM, with no unit written.

Quick note, IC50 for C#Cc1c(F)ccc2cc(O)cc(-c3ncc4c(N5CCCOCC5)nc(OCC56CCCN5C[C@@](C)(F)C6)nc4c3F)c12 (single isomer, unassigned) [Compound 32A] landed at 0.0704

----------
Molecular target: K-Ras G12V (Homo sapiens, UniProt P01116, G12V)
Sequence (P01116 1-169 isoform P01116-2 G12V): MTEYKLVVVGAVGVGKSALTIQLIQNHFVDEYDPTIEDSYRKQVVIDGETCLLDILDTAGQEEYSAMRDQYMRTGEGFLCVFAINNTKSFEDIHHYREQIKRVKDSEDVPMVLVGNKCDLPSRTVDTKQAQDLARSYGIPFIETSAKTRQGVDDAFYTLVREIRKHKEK
Experiment: biochemical
Reported IC50 is given for each of the following compounds.

Consider the following illustrative entries.
{"columns": ["Compound", "IC50"],
 "data": [
  ["C#Cc1c(F)ccc2cc(O)cc(-c3ncc4c(N5CCCOCC5)nc(OCC5CC6CCN5CC6)nc4c3F)c12 (stereo not drawn) [Compound 99]", "2910 nM"],
  ["C#Cc1c(F)ccc2cc(O)cc(-c3nc(C)c4c(N5CCCOCC5)nc(OC[C@@]56CCCN5C[C@H](F)C6)nc4c3F)c12 [Compound 121]", "140 nM"]
]}

Next up:
IC50 for K-Ras G12V (Homo sapiens, UniProt P01116, G12V) with input C#Cc1c(F)ccc2cc(O)cc(-c3nc(C(F)F)c4c(N5CCCOCC5)nc(OC[C@@]56CCCN5C[C@H](F)C6)nc4c3F)c12 [Compound 34, trifluoroacetic acid] equals 483 nM

----------
Reported pIC50 is given for each of the following compounds.
Target: K-Ras G12V (Homo sapiens, UniProt P01116, G12V)
Assay: biochemical
Please note pIC50 is a logarithmic value: minus log10 of concentration in mol/L. Answer with that number alone.

{"columns": ["Compound", "pIC50"],
 "data": [
  ["C#Cc1c(F)ccc2cc(O)cc(-c3ncc4c(N5CCOCC(C)(F)C5)nc(OC[C@@]56CCCN5C[C@H](F)C6)nc4c3F)c12 (stereo partly drawn)", 6.53],
  ["C#Cc1c(F)ccc2cc(O)cc(-c3nc(OC(C)C)c4c(N5CCCOCC5)nc(OC[C@@]56CCCN5C[C@H](F)C6)nc4c3F)c12", 7.78],
  ["C#Cc1c(F)ccc2cc(O)cc(-c3ncc4c(N5CCOC[C@@H](OC)C5)nc(OC[C@@]56CCCN5C[C@H](F)C6)nc4c3F)c12 (single isomer, unassigned) [Compound 49A]", 5.25],
  ["C#Cc1c(F)ccc2cc(O)cc(-c3nc(CO)c4c(N5CCCOCC5)nc(OC[C@@]56CCCN5C[C@H](F)C6)nc4c3F)c12", 6.57],
  ["C#Cc1c(F)ccc2cc(O)cc(-c3ncc4c(N5CCOC[C@@H](C)C5)nc(OC[C@@]56CCCN5C[C@H](F)C6)nc4c3F)c12 (single isomer, unassigned) [Compound 13A]", 5.92],
  ["C#Cc1c(F)ccc2cc(O)cc(-c3ncc4c(N5CC(F)COCC5C)nc(OC[C@@]56CCCN5C[C@H](F)C6)nc4c3F)c12 (stereo partly drawn)", 7.31],
  ["C#Cc1c(F)ccc2cc(O)cc(-c3ncc4c(N5CCCO[C@H](CC#N)C5)nc(OC[C@@]56CCCN5C[C@H](F)C6)nc4c3F)c12 (single isomer, unassigned)", 5.68],
  ["C#Cc1c(F)ccc2cc(O)cc(-c3ncc4c(N5CCCOCC5)nc(OCC56CCCN5C[C@](C)(F)C6)nc4c3F)c12 (single isomer, unassigned) [Compound 32B]", 7.16],
  ["C#Cc1c(F)ccc2cc(O)cc(-c3nc(O)c4c(N5CCCOCC5)nc(OC[C@@]56CCCN5C[C@H](F)C6)nc4c3F)c12", 6.81],
  ["C#Cc1c(F)ccc2cc(O)cc(-c3ncc4c(N5CCCO[C@@H](CC#N)C5)nc(OC[C@@]56CCCN5C[C@H](F)C6)nc4c3F)c12 (single isomer, unassigned) [Compound 15B]", 6.48]
]}

Quick note, pIC50 for C#Cc1c(F)ccc2cc(O)cc(-c3ncc4c(N5CCCOCC5)nc(OCC56CCCN5CC(C)(F)C6)nc4c3F)c12 (stereo not drawn) landed at 7.39

Quick note, pIC50 for C#Cc1c(F)ccc2cc(O)cc(-c3ncc4c(N5CCOCC(C#N)C5)nc(OC[C@@]56CCCN5C[C@H](F)C6)nc4c3F)c12 (stereo partly drawn) landed at 5.55
